# system_tested: human 5-HT4b receptor (Homo sapiens, UniProt Q13639)
# Construct: expressed in transfected cells; host or cells: CHO cells (G418 selection)
# Sequence (Q13639 whole entry): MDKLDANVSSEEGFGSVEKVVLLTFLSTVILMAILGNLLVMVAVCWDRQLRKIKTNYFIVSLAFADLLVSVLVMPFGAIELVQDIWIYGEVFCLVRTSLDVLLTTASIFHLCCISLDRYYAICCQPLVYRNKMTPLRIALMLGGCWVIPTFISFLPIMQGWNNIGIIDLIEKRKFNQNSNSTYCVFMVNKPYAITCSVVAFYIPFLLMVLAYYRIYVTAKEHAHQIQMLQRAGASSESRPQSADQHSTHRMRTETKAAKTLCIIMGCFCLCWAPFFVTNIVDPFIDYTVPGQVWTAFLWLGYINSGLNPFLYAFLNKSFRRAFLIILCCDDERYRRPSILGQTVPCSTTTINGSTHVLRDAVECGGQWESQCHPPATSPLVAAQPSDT
# assay: Test Example 4: Serotonin 4 (5-HT4) receptor agonist activity assay, cAMP HTRF in CHO cells (Table 100)
# Assay type: cell-based
# run_parameters: CHO, 0.25 h; intrinsic activity, maximal activity of 5-HT defined as 100%; mean value; read-out: IA (%)
Counter-ions that a name gives are not always drawn.
Records here are stratified by Emax; strata: range 1 = under 80%, range 2 = from 80% up to 90%, range 3 = 90% and over

[
  {
    "compound": "CC(C)c1nn(-c2noc(C3CCN([C@@H]4C[C@H]5CC[C@@H](C4)N5C(=O)CO)CC3)n2)c2c(F)cccc12",
    "group": "range 3"
  },
  {
    "compound": "CC(=O)N1CC(CN2CC[C@H](Cc3nc(-n4nc(C(C)C)c5cccc(F)c54)no3)C2)C1",
    "group": "range 2"
  },
  {
    "compound": "CCc1nn(-c2noc(C3CCN(CC4CCOCC4)CC3)n2)c2c(F)c(F)ccc12 [Example 449, trifluoroacetate]",
    "group": "range 1"
  },
  {
    "compound": "CCc1nn(-c2noc(C3CCN(CC4CCOCC4)CC3)n2)c2cc(C)ccc12 [Example 435, trifluoroacetate]",
    "group": "range 1"
  },
  {
    "compound": "CC(C)c1nn(-c2noc(C[C@@H]3CCN(C[C@H]4CCN(S(C)(=O)=O)C4)C3)n2)c2c(F)cccc12",
    "group": "range 1"
  },
  {
    "compound": "CCc1nn(-c2noc(C3CCN(C4CCN(C(=O)CO)CC4)CC3)n2)c2c(F)cccc12 [compound 244, hydrochloride]",
    "group": "range 1"
  },
  {
    "compound": "CC(=O)N1CCC(N2CCC(c3nc(-n4nc(C(C)C)c5ccccc54)no3)CC2)CC1 [Example 458, trifluoroacetate]",
    "group": "range 2"
  },
  {
    "compound": "CC(=O)N1CC[C@H](CN2CC[C@@H](Cc3nc(-n4nc(C(C)C)c5cccc(F)c54)no3)C2)C1",
    "group": "range 1"
  },
  {
    "compound": "CC(=O)N1CCC(N2CC[C@@H](Cc3nc(-n4nc(C(C)C)c5cccc(F)c54)no3)C2)CC1",
    "group": "range 2"
  },
  {
    "compound": "CC(C)c1nn(-c2noc(C3CCN(C4CCC4)CC3)n2)c2c(F)c(F)ccc12",
    "group": "range 2"
  },
  {
    "compound": "CC(C)c1nn(-c2noc([C@H]3CC[C@@H](NC4CCN(S(C)(=O)=O)C4)CC3)n2)c2c(F)cccc12 (relative stereo)",
    "group": "range 3"
  },
  {
    "compound": "CC(C)c1nn(-c2noc(C3CCN(C[C@H]4CCN(S(C)(=O)=O)C4)CC3)n2)c2c(F)cccc12",
    "group": "range 3"
  },
  {
    "compound": "CC(C)c1nn(-c2noc(C3CCN(C4CCC4)C3)n2)c2c(F)cccc12 (stereo not drawn)",
    "group": "range 3"
  }
]

###

# system_tested: human 5-HT4b receptor (Homo sapiens)
# Construct: expressed in transfected cells; host or cells: CHO cells (G418 selection)
# assay: Test Example 4: Serotonin 4 (5-HT4) receptor agonist activity assay, cAMP HTRF in CHO cells (Table 100)
# Assay type: cell-based
# run_parameters: CHO, 0.25 h; intrinsic activity, maximal activity of 5-HT defined as 100%; mean value; read-out: IA (%)
Counter-ions that a name gives are not always drawn.

[
  {
    "molecule": "CCc1nn(-c2noc(C3CCN(C4CCN(C(=O)COC)CC4)CC3)n2)c2c(F)c(F)ccc12 [Example 461, trifluoroacetate]",
    "Emax [%]": 65.5
  },
  {
    "molecule": "CC(C)c1nn(-c2noc(C3CCN(C4(C)CCN(C(=O)CO)CC4)CC3)n2)c2c(F)cccc12 [Example 537]",
    "Emax [%]": 111
  },
  {
    "molecule": "CCc1nn(-c2noc(C3CCN(C[C@@H]4CCN(C(C)=O)C4)CC3)n2)c2c(F)cccc12 [Example 201]",
    "Emax [%]": 39.7
  },
  {
    "molecule": "CC(C)c1nn(-c2noc(C[C@H]3CCN(C[C@H]4CCCN4C(=O)CO)C3)n2)c2c(F)cccc12 [Example 541]",
    "Emax [%]": 79
  }
]

This collection of values is drawn from patent US20140057895A1.
